Reference source for all entries: patent US20230339915A1

test target: NL20 human bronchial epithelial cells expressing human Z-AAT (Homo sapiens (Human), UniProt P01009, E366K)
Sequence (P01009 25-418 E366K limits assumed): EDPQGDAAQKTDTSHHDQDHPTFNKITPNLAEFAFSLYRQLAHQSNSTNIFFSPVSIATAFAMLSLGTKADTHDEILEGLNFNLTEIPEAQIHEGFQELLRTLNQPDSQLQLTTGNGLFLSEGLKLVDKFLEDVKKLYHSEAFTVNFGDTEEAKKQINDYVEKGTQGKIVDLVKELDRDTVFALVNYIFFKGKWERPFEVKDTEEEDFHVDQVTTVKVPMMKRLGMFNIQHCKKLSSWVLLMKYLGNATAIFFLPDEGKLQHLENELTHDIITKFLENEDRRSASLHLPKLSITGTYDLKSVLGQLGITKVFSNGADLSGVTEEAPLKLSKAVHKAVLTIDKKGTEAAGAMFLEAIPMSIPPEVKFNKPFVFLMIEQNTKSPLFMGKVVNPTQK
assay method text: AAT Function Assay (MSD Assay NL20-SI Cell Line)
Assay type: cell-based
condition: functionally active AAT (AAT-hNE complex, MSD) in supernatant of NL20 cells expressing human Z-AAT; read-out: NL20 Functional EC50
pEC50: −log10 of the molar value.
Quick reference: pEC50 of the listed items.

Some entries whose results are on file:
[[record]]
compound = "CC(C)(C)OC(=O)N1CCC(c2c(C#N)c3cc(O)ccc3n2-c2ccc(F)cc2)CC1 [Compound 199]"
endpoint_value = "< 5.70"

[[record]]
compound = "Cc1cc(-n2c(C(C)C)c(CC(C)C(=O)O)c3cc(O)ccc32)ccc1F (single isomer, unassigned) [Compound 102]"
endpoint_value = "< 5.70"

[[record]]
compound = "Cc1cc(-n2c(C(C)C)c([C@H]3C[C@H](C(=O)O)C3)c3cc(O)ccc32)ccc1F [Compound 145]"
endpoint_value = "5.70 to 6.30"

[[record]]
compound = "Cc1cc(-n2c(C3CCOCC3)c([C@H]3CC[C@@H](C(=O)O)CC3)c3cc(O)ccc32)ccc1F [Compound 55]"
endpoint_value = "< 5.70"

[[record]]
compound = "Cc1cc(-n2c(C(C)C)c([C@H]3C[C@@H](C#N)C3)c3cc(O)ccc32)ccc1F [Compound 215]"
endpoint_value = "< 5.70"

[[record]]
compound = "Cc1cc(-n2c(C3CCS(=O)(=O)CC3)c(C3CC4(CC(C(=O)O)C4)C3)c3cc(O)ccc32)ccc1F (stereo not drawn) [Compound 47]"
endpoint_value = "< 5.70"

[[record]]
compound = "Cc1cc(-n2c(C3CC3)c(CC(=O)O)c3cc(O)ccc32)ccc1F [Compound 160]"
endpoint_value = "< 5.70"

[[record]]
compound = "COC[C@]1(C(=O)O)C[C@H](c2c(C3CCOCC3)n(-c3ccc(F)c(C)c3)c3ccc(O)cc32)C1 [Compound 106]"
endpoint_value = "< 5.70"

[[record]]
compound = "O=C(O)[C@H]1CC2(C1)C[C@H](c1c(C3CCOCC3)n(-c3ccc(F)c(F)c3)c3ccc(O)cc31)C2 (stereo partly drawn) [Compound 41]"
endpoint_value = "5.70 to 6.30"

[[record]]
compound = "O=C(O)[C@H]1C[C@@H](c2c(C3CCOCC3)n(-c3ccc(F)c(F)c3)c3ccc(O)cc32)C1 [Compound 117]"
endpoint_value = "< 5.70"


Request the reported pEC50 associated with Cc1cc(-n2c(C(C)C)c([C@H]3C[C@@H](c4nn[nH]n4)C3)c3cc(O)ccc32)ccc1F [Compound 217]
5.70 to 6.30

Repeat for the following compound: Cc1cc(-n2c(C3CCOCC3)c(CCC(F)(F)C(=O)O)c3cc(O)ccc32)ccc1F [Compound 10]
< 5.70

Next entry: CCCn1c(C(C)C)c(C#N)c2cc(O)ccc21 [Compound 204]
< 5.70

Repeat for the following compound: C[C@]1(C(=O)O)C[C@@H](c2c(C3CCOCC3)n(-c3ccc(F)cc3)c3ccc(O)cc32)C1 [Compound 49]
< 5.70

Also need COCC(C)(C)c1c(C2CC(C(=O)O)C2)c2cc(O)ccc2n1-c1ccc(F)c(C)c1 (stereo not drawn) [Compound 72] , thanks.
< 5.70
